# Assayed system: PTPN3, P26045
# Sequence (P26045 505-587): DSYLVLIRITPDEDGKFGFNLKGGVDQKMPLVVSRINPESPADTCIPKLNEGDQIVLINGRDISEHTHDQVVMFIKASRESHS
# Assay text: holdup assay
# Set-up: key: below the threshold = too weak to quantify, mostly under pKd 3.1 to 4
# Condition: plain residues with an end cap or a label only (N-terminal biotin on a linker: ado-ado)
Measure: pKd

Here's what some known entries look like.
[
  {
    "Binder": "FNSYSLTGYV [CLDN2, P57739]",
    "pKd": "below the threshold"
  },
  {
    "Binder": "PDGQCTVTEV [RNF146, Q9NTX7]",
    "pKd": 4.99
  },
  {
    "Binder": "TSSMRGMDAV [RSRC2, Q7L4I2]",
    "pKd": 3.67
  },
  {
    "Binder": "TSQESEDTYL [TBC1D10A, Q9BXI6]",
    "pKd": 4.88
  },
  {
    "Binder": "SKSNFGSEPL [KIF17, Q9P2E2]",
    "pKd": 3.95
  },
  {
    "Binder": "TACCHSETVV [TGFA, P01135]",
    "pKd": 4.41
  }
]

Consider the binder shown here: AKPSRISTVV [IQSEC2, Q5JU85] What is its recorded pKd?
4.21

Field entry: PAPSSGKDYV [CLDN1, O95832]
below the threshold

Field entry: VRNLPESEEL [MYOZ3, Q8TDC0]
3.91

Field entry: VDSTVKVWTC [TRAF7, Q6Q0C0]
4.13
